system: Plasmodium falciparum; assay: Antimalarial activity against Plasmodium falciparum 3D7 after 48 hrs incubation by [3H]hypoxanthin incorporation assay
endpoint: IC50 (nM)
State the answer as a number, implicitly in nM.

Task: Assign IC50 to the following record: C[C@H]1Cc2c([nH]c3cc(Cl)c(F)cc23)[C@@]2(N1)C(=O)Nc1ccc(Cl)cc12
Result: 0.7

----------
target: Beta-1 adrenergic receptor (Homo sapiens, UniProt P08588); assay: Binding affinity to human recombinant adrenergic beta-1 receptor
Sequence (P08588 whole entry): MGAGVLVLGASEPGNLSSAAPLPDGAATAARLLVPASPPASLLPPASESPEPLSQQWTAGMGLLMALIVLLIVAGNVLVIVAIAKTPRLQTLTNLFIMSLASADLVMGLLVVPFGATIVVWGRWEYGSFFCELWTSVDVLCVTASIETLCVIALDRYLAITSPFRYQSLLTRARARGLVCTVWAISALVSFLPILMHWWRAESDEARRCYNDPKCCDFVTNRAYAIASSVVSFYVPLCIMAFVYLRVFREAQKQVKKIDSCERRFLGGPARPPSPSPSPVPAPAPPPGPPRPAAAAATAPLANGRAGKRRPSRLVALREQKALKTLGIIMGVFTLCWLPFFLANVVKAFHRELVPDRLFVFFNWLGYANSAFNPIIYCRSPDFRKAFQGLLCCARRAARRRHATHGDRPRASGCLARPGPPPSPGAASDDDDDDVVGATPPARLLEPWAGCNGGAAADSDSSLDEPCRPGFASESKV
pIC50: −log10 of the molar value.
endpoint: pIC50

Task: Complete the entry with pIC50 for C[C@H]1Cc2c([nH]c3cc(Cl)c(F)cc23)[C@@]2(N1)C(=O)Nc1ccc(Cl)cc12
Result: < 5.00

----------
target: Sodium-dependent noradrenaline transporter (Homo sapiens, UniProt P23975); experiment: Binding affinity to human recombinant norepinephrine transporter
Sequence (P23975 whole entry): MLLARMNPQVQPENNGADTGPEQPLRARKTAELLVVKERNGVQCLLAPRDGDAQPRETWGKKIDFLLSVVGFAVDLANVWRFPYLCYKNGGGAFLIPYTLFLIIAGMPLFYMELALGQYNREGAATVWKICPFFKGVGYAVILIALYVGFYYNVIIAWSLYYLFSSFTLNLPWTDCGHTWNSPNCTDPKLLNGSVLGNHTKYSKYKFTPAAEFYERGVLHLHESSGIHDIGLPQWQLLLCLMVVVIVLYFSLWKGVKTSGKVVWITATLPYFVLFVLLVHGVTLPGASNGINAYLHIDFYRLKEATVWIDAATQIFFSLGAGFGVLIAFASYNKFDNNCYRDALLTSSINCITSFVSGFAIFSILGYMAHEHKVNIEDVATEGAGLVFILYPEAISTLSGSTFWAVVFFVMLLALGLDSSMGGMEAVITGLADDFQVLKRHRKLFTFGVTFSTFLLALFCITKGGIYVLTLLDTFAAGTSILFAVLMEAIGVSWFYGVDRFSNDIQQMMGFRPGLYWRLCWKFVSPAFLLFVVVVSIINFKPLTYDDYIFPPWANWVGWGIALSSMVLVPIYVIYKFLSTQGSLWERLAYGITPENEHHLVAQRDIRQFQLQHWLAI
pIC50: −log10 of the molar value.
endpoint: pIC50

Task: Let me know recorded pIC50 for C[C@H]1Cc2c([nH]c3cc(Cl)c(F)cc23)[C@@]2(N1)C(=O)Nc1ccc(Cl)cc12 [CIPARGAMIN] , thanks.
Result: < 5.00

----------
biological target: Estrogen receptor beta (Homo sapiens, UniProt Q92731); experiment: Binding affinity to human recombinant ERbeta
Sequence (Q92731 whole entry): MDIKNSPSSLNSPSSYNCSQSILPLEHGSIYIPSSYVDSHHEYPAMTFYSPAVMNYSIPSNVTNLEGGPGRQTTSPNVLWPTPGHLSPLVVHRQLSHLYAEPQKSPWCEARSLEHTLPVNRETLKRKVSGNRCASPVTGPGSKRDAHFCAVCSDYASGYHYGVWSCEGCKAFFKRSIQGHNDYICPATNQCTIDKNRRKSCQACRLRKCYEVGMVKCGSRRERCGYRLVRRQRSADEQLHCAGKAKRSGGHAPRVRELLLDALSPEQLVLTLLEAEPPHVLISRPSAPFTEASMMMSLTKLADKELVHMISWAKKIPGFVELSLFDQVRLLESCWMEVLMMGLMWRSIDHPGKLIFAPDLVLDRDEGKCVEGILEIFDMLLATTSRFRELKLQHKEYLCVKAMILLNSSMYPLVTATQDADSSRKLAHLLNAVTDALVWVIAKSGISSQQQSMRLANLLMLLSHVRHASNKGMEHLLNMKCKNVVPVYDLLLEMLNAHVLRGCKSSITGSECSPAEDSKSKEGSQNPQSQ
pIC50: −log10 of the molar value.
endpoint: pIC50

Task: Provide one value: measured pIC50 of C[C@H]1Cc2c([nH]c3cc(Cl)c(F)cc23)[C@@]2(N1)C(=O)Nc1ccc(Cl)cc12 [CIPARGAMIN]
Result: < 4.52

----------
molecular target: UniProt P47871; assay: Binding affinity to human recombinant glucagon receptor
Sequence (P47871 whole entry): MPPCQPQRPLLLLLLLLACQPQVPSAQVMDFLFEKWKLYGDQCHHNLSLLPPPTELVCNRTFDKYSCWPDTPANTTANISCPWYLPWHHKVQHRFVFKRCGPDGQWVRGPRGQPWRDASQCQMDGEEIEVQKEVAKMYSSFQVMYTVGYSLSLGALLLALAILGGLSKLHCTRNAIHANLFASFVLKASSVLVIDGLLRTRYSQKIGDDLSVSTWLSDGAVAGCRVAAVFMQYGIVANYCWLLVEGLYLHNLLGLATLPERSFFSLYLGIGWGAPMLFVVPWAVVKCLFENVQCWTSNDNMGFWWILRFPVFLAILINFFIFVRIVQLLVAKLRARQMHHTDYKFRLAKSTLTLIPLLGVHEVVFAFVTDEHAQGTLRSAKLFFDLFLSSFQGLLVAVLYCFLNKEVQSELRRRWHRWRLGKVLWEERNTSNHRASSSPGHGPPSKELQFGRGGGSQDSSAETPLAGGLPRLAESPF
pIC50: −log10 of the molar value.
endpoint: pIC50

Task: Output pIC50 of C[C@H]1Cc2c([nH]c3cc(Cl)c(F)cc23)[C@@]2(N1)C(=O)Nc1ccc(Cl)cc12
Result: < 4.52

----------
system: Plasmodium falciparum; assay: microbe, parasite or virus in culture; settings: Dd2, 72 h
Description: Antimalarial activity against Plasmodium falciparum Dd2 containing attB site inserted in parasite genome and using EF1-alpha promoter driven expressing ATP4 D1247Y mutant after 72 hrs by SYBR green based fluorescence assay
endpoint: IC50 (nM)
Record the value in nM, omitting the unit from your answer.

# annotated cases, reported IC50 shown
{"columns": ["compound", "IC50, nM"],
 "data": [
  ["OC(c1cc(C(F)(F)F)nc2c(C(F)(F)F)cccc12)C1CCCCN1 (stereo not drawn)", 12.5],
  ["C[C@H]1Cc2c([nH]c3cc(Cl)c(F)cc23)[C@@]2(N1)C(=O)Nc1ccc(Cl)cc12", 1.57]
]}

Next:
Task: Recall the reported IC50 of C[C@@H]1CC[C@H]2[C@@H](C)C(=O)O[C@@H]3O[C@@]4(C)CC[C@@H]1[C@]32OO4 on Plasmodium falciparum and write it down.
Result: 19.8

----------
target: Cholecystokinin receptor type A (Homo sapiens, UniProt P32238); test: Binding affinity to human recombinant cholecystokinin A receptor
Sequence (P32238 whole entry): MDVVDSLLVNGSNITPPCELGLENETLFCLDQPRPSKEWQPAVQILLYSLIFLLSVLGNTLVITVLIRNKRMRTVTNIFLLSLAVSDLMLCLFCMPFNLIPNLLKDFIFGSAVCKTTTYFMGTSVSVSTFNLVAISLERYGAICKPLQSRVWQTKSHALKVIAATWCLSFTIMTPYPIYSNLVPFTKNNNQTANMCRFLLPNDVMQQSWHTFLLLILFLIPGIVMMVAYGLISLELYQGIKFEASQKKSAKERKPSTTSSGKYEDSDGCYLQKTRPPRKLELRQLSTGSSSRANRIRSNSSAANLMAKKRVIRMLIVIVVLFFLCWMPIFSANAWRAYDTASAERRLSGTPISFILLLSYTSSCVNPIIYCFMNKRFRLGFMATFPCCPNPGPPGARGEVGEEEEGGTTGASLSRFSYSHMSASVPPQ
endpoint: IC50

Task: Give reported IC50 value for C[C@H]1Cc2c([nH]c3cc(Cl)c(F)cc23)[C@@]2(N1)C(=O)Nc1ccc(Cl)cc12
Result: > 30 µM

----------
assay: Intrinsic clearance in mouse liver microsome; assay type: ADME; conditions: liver microsomes
endpoint: CLint scaled (mL/min/kg)
Write it as a number; the unit mL/min/kg goes unstated.

Task: Please look at this compound and report its CLint scaled: C[C@H]1Cc2c([nH]c3cc(Cl)c(F)cc23)[C@@]2(N1)C(=O)Nc1ccc(Cl)cc12
Result: 49.7

----------
test system: Plasmodium falciparum; assay: microbe, parasite or virus in culture; settings: Dd2, 72 h
Description: Antimalarial activity against Plasmodium falciparum Dd2 containing attB site inserted in parasite genome and using CAM promoter driven expressing ATP4 D1247Y mutant after 72 hrs by SYBR green based fluorescence assay
The entries below come with measured pIC50 values attached.
In textbook form, pIC50 equals minus log to base ten of the concentration in mol/L.

# count of solved cases: 2
{"columns": ["molecule", "pIC50"],
 "data": [
  ["C[C@@H]1CC[C@H]2[C@@H](C)C(=O)O[C@@H]3O[C@@]4(C)CC[C@@H]1[C@]32OO4 [ARTEMISININ]", 7.79],
  ["C[C@H]1Cc2c([nH]c3cc(Cl)c(F)cc23)[C@@]2(N1)C(=O)Nc1ccc(Cl)cc12 [CIPARGAMIN]", 8.41]
]}

// switching to the query molecule
Task: Specify measured pIC50 for OC(c1cc(C(F)(F)F)nc2c(C(F)(F)F)cccc12)C1CCCCN1 (stereo not drawn) [MEFLOQUINE] .
Result: 7.96

----------
Molecular target: Corticotropin-releasing factor receptor 1 (Homo sapiens, UniProt P34998)
Sequence (P34998 whole entry): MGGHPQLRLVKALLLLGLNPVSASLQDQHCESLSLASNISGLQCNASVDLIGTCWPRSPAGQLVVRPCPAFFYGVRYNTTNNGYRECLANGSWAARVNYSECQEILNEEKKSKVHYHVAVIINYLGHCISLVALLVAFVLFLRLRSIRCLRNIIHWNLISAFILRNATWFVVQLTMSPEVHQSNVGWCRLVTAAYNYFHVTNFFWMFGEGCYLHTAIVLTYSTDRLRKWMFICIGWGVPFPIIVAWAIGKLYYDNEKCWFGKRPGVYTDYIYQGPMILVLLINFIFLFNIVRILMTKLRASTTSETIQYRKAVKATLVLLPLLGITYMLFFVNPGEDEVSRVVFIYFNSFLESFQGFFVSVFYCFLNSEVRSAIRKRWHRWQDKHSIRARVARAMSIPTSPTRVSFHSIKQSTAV
Experiment: Binding affinity to human recombinant CRF1 receptor
endpoint: IC50

Task: Identify measured IC50 obtained with Corticotropin-releasing factor receptor 1 (Homo sapiens, UniProt P34998) for C[C@H]1Cc2c([nH]c3cc(Cl)c(F)cc23)[C@@]2(N1)C(=O)Nc1ccc(Cl)cc12 .
Result: > 30 µM

----------
test system: Plasmodium falciparum; experiment: Antimalarial activity against NITD609-resistant Plasmodium falciparum Dd2 Clone1 bearing P-type ATPase4 I398F and P990R mutations after 72 hrs by SYBR green based fluorescence assay; assay type: functional, organism-based; details: Dd2, 72 h
# IC50 values compiled below
Your answer should be a plain number; it is taken to be in nM.

Examples from the recorded data:
{"columns": ["molecule", "readout.number"],
 "data": [
  ["CC(=O)C1=C(O)[C@@H]2[C@H]3c4c[nH]c5cccc(c45)C[C@H]3C(C)(C)N2C1=O", 3460],
  ["O=C1C(O)=C([C@H]2CC[C@H](c3ccc(Cl)cc3)CC2)C(=O)c2ccccc21", 0.6],
  ["COc1ccc(C[C@H]2NC[C@H](O)[C@H]2OC(C)=O)cc1", 5.8]
]}

Task: Identify measured IC50 associated with OC(c1cc(C(F)(F)F)nc2c(C(F)(F)F)cccc12)C1CCCCN1 (centres undefined)
Result: 6.7

----------
experiment: Binding affinity to rat N-type calcium channel
endpoint: IC50

Task: State its IC50: C[C@H]1Cc2c([nH]c3cc(Cl)c(F)cc23)[C@@]2(N1)C(=O)Nc1ccc(Cl)cc12
Result: > 10 µM

----------
target: 5-hydroxytryptamine receptor 2B (Homo sapiens); assay: Binding affinity to human recombinant serotonin 5-HT2B receptor
Sequence (P41595 whole entry): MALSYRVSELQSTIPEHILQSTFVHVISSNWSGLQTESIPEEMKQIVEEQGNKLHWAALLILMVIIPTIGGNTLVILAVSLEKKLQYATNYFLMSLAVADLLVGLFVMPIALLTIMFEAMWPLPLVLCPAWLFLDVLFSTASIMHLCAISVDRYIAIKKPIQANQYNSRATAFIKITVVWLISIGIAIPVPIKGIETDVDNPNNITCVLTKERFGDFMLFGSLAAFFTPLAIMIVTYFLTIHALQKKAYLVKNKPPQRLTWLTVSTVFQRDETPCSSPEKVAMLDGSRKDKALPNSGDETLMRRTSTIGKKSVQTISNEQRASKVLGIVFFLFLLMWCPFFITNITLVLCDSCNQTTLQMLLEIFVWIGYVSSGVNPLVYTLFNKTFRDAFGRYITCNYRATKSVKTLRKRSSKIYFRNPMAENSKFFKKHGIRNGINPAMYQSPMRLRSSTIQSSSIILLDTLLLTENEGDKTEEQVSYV
endpoint: IC50

Task: Specify IC50 for C[C@H]1Cc2c([nH]c3cc(Cl)c(F)cc23)[C@@]2(N1)C(=O)Nc1ccc(Cl)cc12 and stop.
Result: > 10 µM

----------
target: Voltage-gated inwardly rectifying potassium channel KCNH2 (Homo sapiens, UniProt Q12809); assay: Inhibition of human ERG
Sequence (Q12809 whole entry): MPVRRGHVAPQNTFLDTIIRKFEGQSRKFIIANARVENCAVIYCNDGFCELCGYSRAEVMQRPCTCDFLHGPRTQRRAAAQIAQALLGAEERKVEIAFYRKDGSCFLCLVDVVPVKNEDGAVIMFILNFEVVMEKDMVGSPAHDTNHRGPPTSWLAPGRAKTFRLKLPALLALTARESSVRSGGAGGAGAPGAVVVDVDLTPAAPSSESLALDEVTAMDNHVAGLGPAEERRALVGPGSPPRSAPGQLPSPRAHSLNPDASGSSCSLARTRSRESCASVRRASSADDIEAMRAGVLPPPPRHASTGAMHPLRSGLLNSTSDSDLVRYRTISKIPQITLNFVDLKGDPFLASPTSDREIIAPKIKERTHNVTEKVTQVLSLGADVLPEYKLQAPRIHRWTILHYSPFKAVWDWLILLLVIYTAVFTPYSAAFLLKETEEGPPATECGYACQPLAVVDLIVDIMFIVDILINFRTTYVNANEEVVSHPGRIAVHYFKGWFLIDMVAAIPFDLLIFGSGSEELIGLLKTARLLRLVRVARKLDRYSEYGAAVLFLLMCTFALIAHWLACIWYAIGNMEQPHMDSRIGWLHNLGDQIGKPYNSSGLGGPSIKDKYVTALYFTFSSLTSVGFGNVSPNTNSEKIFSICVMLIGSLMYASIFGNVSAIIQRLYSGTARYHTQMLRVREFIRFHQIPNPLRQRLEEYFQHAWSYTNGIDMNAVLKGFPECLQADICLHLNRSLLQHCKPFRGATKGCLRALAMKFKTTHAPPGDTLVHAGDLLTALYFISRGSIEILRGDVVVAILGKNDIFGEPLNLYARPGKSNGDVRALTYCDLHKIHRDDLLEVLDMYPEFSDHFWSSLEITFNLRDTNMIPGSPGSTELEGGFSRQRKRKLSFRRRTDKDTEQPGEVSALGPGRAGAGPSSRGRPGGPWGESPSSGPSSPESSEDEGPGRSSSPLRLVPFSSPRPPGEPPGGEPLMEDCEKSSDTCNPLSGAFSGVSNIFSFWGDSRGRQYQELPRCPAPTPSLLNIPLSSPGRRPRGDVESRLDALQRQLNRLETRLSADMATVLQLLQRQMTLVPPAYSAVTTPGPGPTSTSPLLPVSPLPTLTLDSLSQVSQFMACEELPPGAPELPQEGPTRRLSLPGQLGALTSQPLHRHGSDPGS
endpoint: IC50 (µM)
Supply the numeric figure in µM, leaving out any unit text.

Task: Send back Voltage-gated inwardly rectifying potassium channel KCNH2 (Homo sapiens, UniProt Q12809) IC50 of C[C@H]1Cc2c([nH]c3cc(Cl)c(F)cc23)[C@@]2(N1)C(=O)Nc1ccc(Cl)cc12 only.
Result: 30.4

----------
experiment: Tmax in CD1 mouse at 24.6 mg/kg, po; type: ADME, organism-based; parameters: dose 24.6 mg/kg, route oral; conditions: in vivo
endpoint: Tmax (h)
Please reply with the bare figure in h and do not write the unit itself.

Task: Please list Tmax recorded for the compound C[C@H]1Cc2c([nH]c3cc(Cl)c(F)cc23)[C@@]2(N1)C(=O)Nc1ccc(Cl)cc12
Result: 1

----------
assay: AUC (0 to infinity) in CD1 mouse at 24.6 mg/kg, po; assay type: ADME, organism-based; design: time infinity, dose 24.6 mg/kg, route oral; details: plasma
endpoint: AUC(0-inf) (µM·h)
Record the value in µM·h, omitting the unit from your answer.

Task: Answer with the recorded AUC(0-inf) of C[C@H]1Cc2c([nH]c3cc(Cl)c(F)cc23)[C@@]2(N1)C(=O)Nc1ccc(Cl)cc12 [CIPARGAMIN] only.
Result: 139

----------
Biological target: Neuropeptide Y receptor type 2 (Homo sapiens, UniProt P49146)
Sequence (P49146 whole entry): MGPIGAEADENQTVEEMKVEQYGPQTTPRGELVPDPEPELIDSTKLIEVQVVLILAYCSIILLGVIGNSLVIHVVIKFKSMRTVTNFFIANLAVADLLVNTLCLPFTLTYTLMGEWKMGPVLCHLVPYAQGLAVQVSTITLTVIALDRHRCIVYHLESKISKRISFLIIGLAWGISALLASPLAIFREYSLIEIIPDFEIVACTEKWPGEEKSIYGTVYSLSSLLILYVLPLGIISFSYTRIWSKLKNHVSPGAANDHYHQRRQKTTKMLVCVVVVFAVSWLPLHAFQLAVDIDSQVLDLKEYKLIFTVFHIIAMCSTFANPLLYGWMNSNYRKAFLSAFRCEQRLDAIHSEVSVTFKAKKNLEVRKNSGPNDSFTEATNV
Experiment: Binding affinity to human recombinant neuropeptide Y2 receptor
pIC50: −log10 of the molar value.
endpoint: pIC50

Task: Under Neuropeptide Y receptor type 2 (Homo sapiens, UniProt P49146), report pIC50 for C[C@H]1Cc2c([nH]c3cc(Cl)c(F)cc23)[C@@]2(N1)C(=O)Nc1ccc(Cl)cc12 [CIPARGAMIN]
Result: < 5.00
